Where these numbers come from: patent US8993577B2

target: human Histamine H3 receptor (hH3R) (Homo sapiens, UniProt Q9Y5N1); construct: membranes; assay: GTPγS binding assay, antagonist activity in membranes of CHO cells expressing hH3R; details: membranes from CHO cells transfected with hH3R; (R)-α-methyl histamine 30 nM; [35S]GTPγS 0.2 nM
Sequence (Q9Y5N1 whole entry): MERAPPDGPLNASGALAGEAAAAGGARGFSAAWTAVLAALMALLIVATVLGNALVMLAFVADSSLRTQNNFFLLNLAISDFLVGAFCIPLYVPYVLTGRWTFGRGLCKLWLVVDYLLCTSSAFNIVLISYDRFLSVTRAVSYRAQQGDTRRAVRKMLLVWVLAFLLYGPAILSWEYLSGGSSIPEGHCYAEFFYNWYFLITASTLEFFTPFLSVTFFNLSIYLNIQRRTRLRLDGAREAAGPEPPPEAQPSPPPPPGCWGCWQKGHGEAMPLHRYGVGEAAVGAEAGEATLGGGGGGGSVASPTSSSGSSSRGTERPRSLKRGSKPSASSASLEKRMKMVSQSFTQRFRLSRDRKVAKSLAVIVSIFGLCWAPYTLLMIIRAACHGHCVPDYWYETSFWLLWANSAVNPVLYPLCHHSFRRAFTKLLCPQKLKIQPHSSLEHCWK
pIC50: −log10 of the molar value.
Label YES when pIC50 is at or above 8; anything below gets NO.

> print(dat)
                                   compound  label.value
1  CC[C@H]1CN(C2CCC2)CCN1C(=O)[C@H]1C[C@@H]1c1ccc(C(N)=O)cc1 (mixture of isomers)           NO
2  C[C@H]1CN(C(=O)[C@H]2C[C@@H]2c2cccc(C(N)=O)c2)CCN1C1CCC1 (mixture of isomers)           NO
3  CC1(C)CN(C2CCC2)CCN1C(=O)[C@H]1C[C@@H]1c1ccc(C(N)=O)cc1 (racemic)           NO
4  C[C@@H]1CN(C(=O)[C@H]2C[C@@H]2c2cccc(C(N)=O)c2)CCN1C1CCC1 (mixture of isomers)           NO
5  CC[C@@H]1CN(C2CCC2)CCN1C(=O)[C@H]1C[C@@H]1c1ccc(C(N)=O)cc1 (mixture of isomers)           NO
6  C[C@@H]1CN(C2CCC2)CCN1C(=O)[C@H]1C[C@@H]1c1ccc(C(N)=O)cc1 [Example 8]          YES
